TARGET OR TEST SYSTEM: T1, Human CXCR2 (human, UniProt P25025 1-360)
T1 sequence: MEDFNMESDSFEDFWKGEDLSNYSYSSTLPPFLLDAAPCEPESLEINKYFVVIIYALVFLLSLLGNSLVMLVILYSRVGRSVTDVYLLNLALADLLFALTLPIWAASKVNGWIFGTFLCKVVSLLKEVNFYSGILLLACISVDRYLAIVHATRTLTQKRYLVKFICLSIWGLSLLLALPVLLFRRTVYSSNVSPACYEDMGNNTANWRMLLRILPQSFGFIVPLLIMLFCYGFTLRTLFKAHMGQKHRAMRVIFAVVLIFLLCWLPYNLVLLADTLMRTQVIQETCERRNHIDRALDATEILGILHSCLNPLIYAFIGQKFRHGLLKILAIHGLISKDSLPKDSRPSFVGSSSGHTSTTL
EXPERIMENT SUMMARY: cell-based or functional assay
MEASUREMENT TYPE: FLIPR IC50 (GRO-α induced calcium release) (nM)
# unit: nM | format: bare number

# FLIPR IC50 (GRO-α induced calcium release) (binder: CXCR20024 (VHH, Bivalent: two VHH joined by a GlySer linker; also called 163E3-35GS-163E3; not shown: C-terminal c-myc tag and His6 tag coded by pAX100) EVQLVESGGGLVQPGGSLRLSCVASGRIFSSNAMGWFRQAPGKEREFVAAITWRSGGSAYYADSAKGRFTISRDNAKNTVYLQMNSLKPEDTAVYYCAAGGSSWLSFPPDYWGQGTQVTVSSGGGGSGGGGSGGGGSGGGGSGGGGSGGGGSGGGGSEVQLVESGGGLVQPGGSLRLSCVASGRIFSSNAMGWFRQAPGKEREFVAAITWRSGGSAYYADSAKGRFTISRDNAKNTVYLQMNSLKPEDTAVYYCAAGGSSWLSFPPDYWGQGTQVTVSS ) is 26.4
